# Assayed System: IKKε (Homo sapiens, UniProt Q14164)
# Construct: TBK1 and IKKε were expressed and purified as full length recombinant proteins
# Sequence (Q14164 1-716): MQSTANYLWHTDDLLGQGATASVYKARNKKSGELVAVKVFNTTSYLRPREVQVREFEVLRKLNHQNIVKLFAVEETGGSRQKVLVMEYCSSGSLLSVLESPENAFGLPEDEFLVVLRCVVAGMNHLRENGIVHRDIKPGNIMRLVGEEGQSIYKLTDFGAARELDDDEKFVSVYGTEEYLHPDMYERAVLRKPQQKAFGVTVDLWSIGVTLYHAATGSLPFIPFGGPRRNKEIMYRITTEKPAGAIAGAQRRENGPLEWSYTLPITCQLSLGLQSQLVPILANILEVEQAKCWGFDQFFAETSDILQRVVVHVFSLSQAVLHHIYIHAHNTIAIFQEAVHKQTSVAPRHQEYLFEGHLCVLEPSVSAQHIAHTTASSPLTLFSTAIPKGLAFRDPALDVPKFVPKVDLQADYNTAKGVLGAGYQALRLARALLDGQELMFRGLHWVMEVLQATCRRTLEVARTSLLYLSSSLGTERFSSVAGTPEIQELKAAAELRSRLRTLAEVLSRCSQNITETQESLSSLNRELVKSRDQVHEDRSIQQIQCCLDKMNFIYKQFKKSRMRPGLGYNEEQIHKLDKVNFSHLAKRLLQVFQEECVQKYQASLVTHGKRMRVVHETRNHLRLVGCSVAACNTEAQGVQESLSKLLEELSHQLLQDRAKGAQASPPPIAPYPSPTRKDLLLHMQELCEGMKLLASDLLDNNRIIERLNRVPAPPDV
# Method Notes: TR-FRET enzymatic activity assay, IKKε; further: full length recombinant IKKε at 0.3 nM
# Reported Conditions: read-out: IKKϵ IC50
pIC50: −log10 of the molar value.
Attribute Measured: pIC50

1 = N#Cc1cc(-c2ccnc(NC(=O)[C@@H]3CC3C(=O)O)c2)ccc1O[C@H]1CCN(C(=O)CO)C[C@H]1F (stereo in doubt) [Example 84]
2 = N#Cc1cc(-c2ccnc(NC(=O)C3CC3)c2)ccc1N1CC[C@@H](O)C1 [Example 17]
Could you kindly indicate whether 1 or 2 has the higher pIC50 value? Kindly state the label of the option you pick. 1

a = N#Cc1cc(-c2ccnc(NC(=O)[C@H]3C[C@@H]3c3cccnc3)c2)ccc1O[C@H]1CCN(C(=O)CO)C[C@H]1F [Example 136]
b = N#Cc1cc(-c2cc(NC(=O)C3CC3)ncn2)ccc1O[C@H]1CCN(C(=O)[C@@H]2CCC(=O)N2)CC1(F)F [Example 152]
c = N#Cc1cc(-c2ccnc(NC(=O)[C@@H]3C[C@H]3C(N)=O)c2)ccc1O[C@H]1CCN(C(=O)CO)C[C@H]1F [Example 85]
d = N#Cc1cc(-c2ccnc(NC(=O)C3CC3)c2)ccc1O[C@H]1CCN(C(=O)CO)C[C@H]1F [Example 8]
Provide the items ranked by increasing pIC50. Put the labels in the requested order and write them down. c, b, d, a

a = N#Cc1cc(-c2ccnc(NC(=O)C3CC3)c2)ccc1O[C@H]1CCN(C(=O)CCO)CC1(F)F [Example 15]
b = N#Cc1cc(-c2cc(NC(=O)C3CC3)ncn2)ccc1O[C@H]1CCN(C(=O)[C@@H]2COC(=O)N2)CC1(F)F [Example 155]
I need your help: which of the pair a , b has higher pIC50? Record your answer as the label of the chosen record. b
